experimental setup: in toluene, 298.15 K
readout: solubility (mole fraction)
Keep it simple and answer with nothing but the number.

solubility (mole fraction) measured on COc1c(N2CCNC(C)C2)c(F)cc2c(=O)c(C(=O)O)cn(C3CC3)c12 (stereo unspecified) = 0.000261

----------
experimental setup: in n-propanol, 278.15 K
readout: solubility (mole fraction)
Just the number, please, no unit after it.

The reported solubility (mole fraction) of the compound COc1c(N2CCNC(C)C2)c(F)cc2c(=O)c(C(=O)O)cn(C3CC3)c12 (stereo unspecified) was 0.000445

----------
experimental setup: in ethyl acetate, 308.15 K
readout: solubility (mole fraction)

Just so you know, measured solubility (mole fraction) for COc1c(N2CCNC(C)C2)c(F)cc2c(=O)c(C(=O)O)cn(C3CC3)c12 (stereo unspecified) came out at 0.00893
